The reported numbers originate from PubChem BioAssay (Tox21).

tested on: estrogen-related receptor alpha (ERRalpha) with PGC-1alpha coactivator, human; experiment: qHTS assay to identify small molecule antagonists of the estrogen related receptor signaling pathway with the pleiotropic PPARgamma coactivator (PGC) (AID 1224821); conditions: ERR/PGC reporter cell line, luciferase, antagonist mode; series mostly up to 46.1 µM; also: nearly all actives have a fitted effect of over 50% in size
Results filed as inconclusive are left out. The source made the active and inactive calls. Calls follow the shape of the full dose curve.
Outcome codes: true (1) for active, false (0) for inactive

INSERT INTO assay_data (molecule, group_label) VALUES
  ('CC[N+](CC)(CC)CCOc1ccc(/C=C/c2ccccc2)cc1', 'true (1)'),
  ('CCCCN(CCCC)CC(O)c1cc(Cl)cc2c1-c1ccc(Cl)cc1/C2=C/c1ccc(Cl)cc1 (stereo unspecified)', 'false (0)'),
  ('CN1CCN2c3ccccc3Cc3ccccc3C2C1 (stereo unspecified)', 'false (0)'),
  ('Nc1nc2c(ncn2COCCO)c(=O)[nH]1', 'false (0)'),
  ('OCCN1CCN(CCCN2c3ccccc3Sc3ccc(C(F)(F)F)cc32)CC1', 'false (0)'),
  ('Cc1cc(C(C)(C)C)cc(C)c1CC1=NCCN1', 'false (0)');

====

test: qHTS RealTime-Glo MT Cell Viability Assay in HepG2 cells - 32 hour (AID 1224877); details: RealTime-Glo luminescence; series mostly up to 76.8 µM; also: nearly all actives have a fitted effect of over 55% in size
Results filed as inconclusive are left out. Active and inactive are the calls of the source. Calls follow the shape of the dose curve; as a rule, active = well fitted cell-killing curve with a large enough effect in the repeat runs; inconclusive = weak or mixed curves; inactive = flat fitted curve, though single readings scatter.
Outcome codes: True = active, False = inactive

INSERT INTO results (compound, group_label) VALUES
  ('O=C(O)c1ccc2cc(C(=O)O)ccc2c1', 'False'),
  ('Cc1cc(C)c(/C=C2\C(=O)Nc3ccccc32)[nH]1', 'False'),
  ('CCCCOC(=O)CO', 'False'),
  ('CCCC1CCC(=O)CC1', 'False'),
  ('Cc1cc(-n2nc3ccc(Cl)cc3n2)c(O)c(C(C)(C)C)c1', 'False'),
  ('Nc1nc(-c2ccccc2)cs1', 'False'),
  ('C#CC1(O)CC[C@H]2[C@@H]3CCC4=CCCC[C@@H]4[C@H]3CC[C@@]21C (some centres not stated)', 'True');

====

Test: qHTS assay for small molecule agonists of the antioxidant response element (ARE) signaling pathway (AID 743202); as to activation: % is scaled to controls: 0 for no effect and ±100 for the full control effect
Settings: HepG2 ARE-bla reporter, beta-lactamase FRET, 16 h; series mostly up to 73.3 µM
Excerpt: U.S. Tox21 Program National Center for Advancing Translational Sciences [NCATS] NIH Chemical Genomics Center [NCGC] U.S. Environmental Protection Agency [EPA] National Institutes of Environmental Health Sciences [NIEHS] National Toxicology Program [NTP] U.S. Food and Drug Administration [FDA] […] The activation of the report gene under culture conditions can be detected by fluorescence intensity. […]
Inconclusive results are not listed. Calls of active or inactive are those of the source. Calls come from the whole dose curve; as a rule, active = well fitted activation curve with a large enough effect in the signal ratio in the repeat runs (not every such curve was filed as active); inconclusive = weak or mixed curves, or effect the other way; inactive = no such curve, though single readings can be large or run the other way; the % refers to the signal ratio.
Outcome codes: true = active, false = inactive

INSERT INTO assay_data (molecule, group_label) VALUES
  ('C=C(C)c1cccc(C(=C)C)c1', 'false'),
  ('CCCC[P+](C)(CCCC)CCCC', 'false'),
  ('CCc1ccc(Br)cc1', 'false'),
  ('C#C[C@]1(O)CC[C@H]2[C@@H]3[C@H](C)CC4=C(CCC(=O)C4)[C@H]3CC[C@@]21C', 'true'),
  ('CCN(CCN)c1cccc(C)c1', 'false'),
  ('CCC(CC)C(C)CCOC(C)=O (stereo not drawn)', 'false'),
  ('CNc1ccc([N+](=O)[O-])cc1', 'false'),
  ('Nc1nc2c(ncn2COCCO)c(=O)[nH]1', 'false'),
  ('O=C(O)c1ccc2cc(C(=O)O)ccc2c1', 'false'),
  ('O=C(O)c1cc(N=Nc2ccc([N+](=O)[O-])cc2)ccc1O', 'true'),
  ('Cc1ccc(C)cc1', 'false'),
  ('Nc1nc(N)nc(-c2cc(Cl)ccc2Cl)n1', 'false'),
  ('CCN(CC)c1ccc2c(-c3ccc(S(=O)(=O)O)cc3S(=O)(=O)[O-])c3ccc(=[N+](CC)CC)cc-3oc2c1', 'false');
